Molecular target: Ribosomal protein S6 kinase alpha-2 (Homo sapiens) (UniProt Q15349);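 also: value is the mean inhibition of RSK3 within GSK PKIS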
Sequence (Q15349 whole entry): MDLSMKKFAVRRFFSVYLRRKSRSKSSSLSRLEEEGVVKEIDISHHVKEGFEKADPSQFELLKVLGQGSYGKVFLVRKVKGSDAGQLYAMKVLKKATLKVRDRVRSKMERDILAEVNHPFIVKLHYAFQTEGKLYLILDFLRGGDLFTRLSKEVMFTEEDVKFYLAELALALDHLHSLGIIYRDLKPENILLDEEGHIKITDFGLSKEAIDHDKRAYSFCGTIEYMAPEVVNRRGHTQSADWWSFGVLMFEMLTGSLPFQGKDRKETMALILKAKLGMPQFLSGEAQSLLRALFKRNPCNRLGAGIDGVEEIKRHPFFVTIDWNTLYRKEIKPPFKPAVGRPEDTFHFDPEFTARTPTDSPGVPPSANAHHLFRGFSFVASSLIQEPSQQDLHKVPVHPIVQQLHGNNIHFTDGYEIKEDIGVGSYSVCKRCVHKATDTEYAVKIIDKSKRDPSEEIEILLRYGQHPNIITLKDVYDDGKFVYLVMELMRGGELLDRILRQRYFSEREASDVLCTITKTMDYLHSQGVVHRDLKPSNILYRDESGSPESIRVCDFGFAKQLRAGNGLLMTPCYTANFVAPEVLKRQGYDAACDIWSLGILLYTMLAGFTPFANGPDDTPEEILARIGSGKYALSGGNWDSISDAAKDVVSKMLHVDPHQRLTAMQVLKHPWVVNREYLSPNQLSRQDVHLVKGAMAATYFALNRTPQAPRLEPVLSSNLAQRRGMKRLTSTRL
Settings: at 1 µM
# binning rule on inhibition: low value (below 2%), medium value (2% to below 3%), high value (3% or more)

## Input Field: class (inhibition) — entry: COc1ccc(CNC(=O)c2ccc(-c3cc(-c4nnc(C)o4)ccc3C)cc2)cc1
## Output low value

## Input Field: class (inhibition) — entry: COc1ccc(-c2cc(-c3c[nH]nc3-c3ccccn3)ccn2)cc1
## Output high value

## Input Field: class (inhibition) — entry: COc1cc(/C=N/Nc2ncnc3[nH]ncc23)ccc1O
## Output high value

## Input Field: class (inhibition) — entry: Nc1nc(-c2cccc(Cl)c2)c(-c2ccc3ncccc3n2)s1
## Output medium value

## Input Field: class (inhibition) — entry: CCN1CCC(CC(=O)Nc2n[nH]c3nnc(-c4cccc(F)c4F)cc23)CC1
## Output low value

## Input Field: class (inhibition) — entry: COc1cc2ncn(-c3cc(OCc4ccccc4C(F)(F)F)c(C(=O)N(C)C)s3)c2cc1OC
## Output low value

## Input Field: class (inhibition) — entry: COC(=O)Nc1nc2ccc(S(=O)(=O)c3ccc(NC(=O)Nc4cc(C(F)(F)F)ccc4F)cc3)cc2[nH]1
## Output medium value

## Input Field: class (inhibition) — entry: CCCN1CCC(c2ccc(Nc3nc(Nc4cc(F)ccc4C(N)=O)c4cc[nH]c4n3)c(OC)c2)CC1
## Output high value

## Input Field: class (inhibition) — entry: COc1cccc(-c2c[nH]c3c(N/N=C/c4ccncc4)ncnc23)c1
## Output high value

## Input Field: class (inhibition) — entry: CCNC(=O)O[C@H]1CN[C@H](C#Cc2cc3ncnc(Nc4ccc(OCc5cccc(F)c5)c(Cl)c4)c3s2)C1
## Output low value

## Input Field: class (inhibition) — entry: Cc1ccc(O)cc1Nc1ccnc2cc(-c3ccccn3)ccc12
## Output medium value

## Input Field: class (inhibition) — entry: COc1ccc2c(-c3ccnc(Nc4cccc(OC(F)(F)F)c4)n3)cnn2n1
## Output medium value

## Input Field: class (inhibition) — entry: COc1ccc(-c2nn3ncccc3c2-c2ccnc(Nc3ccc4c(c3)OCCO4)n2)cc1
## Output low value

## Input Field: class (inhibition) — entry: CCN(CC)S(=O)(=O)c1ccc(OC)c(Nc2ncc(-c3ccccc3)o2)c1
## Output low value

## Input Field: class (inhibition) — entry: NC(=O)c1sc(-n2cnc3ccc(C(F)(F)F)cc32)cc1OCc1ccccc1Br
## Output high value

## Input Field: class (inhibition) — entry: CC(=O)Nc1cccc(C#Cc2cncnc2Nc2ccc(OCc3cccc(F)c3)c(Cl)c2)c1
## Output low value

## Input Field: class (inhibition) — entry: CCn1c(-c2nonc2N)nc2cnc(Oc3cccc(NC(=O)c4ccc(N(C)C)cc4)c3)cc21
## Output high value

## Input Field: class (inhibition) — entry: O=C(Nc1n[nH]c2cc(-c3ccc(F)cc3)ccc12)C1CC1
## Output high value

## Input Field: class (inhibition) — entry: COc1cccc(-n2ncc3c(N/N=C/c4ccc(F)cc4)ncnc32)c1
## Output high value

## Input Field: class (inhibition) — entry: CNC(=O)c1cccc(C#Cc2cncnc2Nc2ccc(OCc3cccc(F)c3)c(Cl)c2)c1
## Output low value
